// reported fold over rodent (competitive ELISA) for each item listed
- tgt: T1, recombinant hMCAM-His (human, UniProt P43121 24-559)
- T1 construct: not shown: His tag
- T1 chain: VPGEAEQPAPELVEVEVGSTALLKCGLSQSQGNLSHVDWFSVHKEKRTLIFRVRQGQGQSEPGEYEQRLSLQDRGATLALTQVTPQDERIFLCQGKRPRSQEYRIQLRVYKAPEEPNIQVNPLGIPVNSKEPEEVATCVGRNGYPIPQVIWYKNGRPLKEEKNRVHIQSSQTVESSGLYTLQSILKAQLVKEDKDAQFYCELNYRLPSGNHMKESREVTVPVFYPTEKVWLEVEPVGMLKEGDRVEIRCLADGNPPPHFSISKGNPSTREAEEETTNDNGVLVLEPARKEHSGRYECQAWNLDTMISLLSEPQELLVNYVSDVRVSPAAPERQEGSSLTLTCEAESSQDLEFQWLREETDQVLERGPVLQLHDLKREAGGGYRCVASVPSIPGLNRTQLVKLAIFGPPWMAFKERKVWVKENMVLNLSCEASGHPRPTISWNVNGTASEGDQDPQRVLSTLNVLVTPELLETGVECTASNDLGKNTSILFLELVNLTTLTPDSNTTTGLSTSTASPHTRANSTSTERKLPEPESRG
- experimentSummary: competitive ELISA on hMCAM-His, competitor biotinylated rodent or chimeric 1749; Expt. #2; vs rodent 1749
attributeMeasured: fold over rodent (competitive ELISA) (fold)

binder | attributeMeasured | unitsLabel | dataValue
h1749VH1 + h1749VL1 (antibody, human IgG1, V domains shown, also called humanized 1749 standard VH and VL) VH: EVQLVESGGGLVQPGGSLRLSCAASGFTFSSYIMSWVRQAPGKGLEWVATISSGGSSTYYPDSVKGRFTISRDNAKNSLYLQMNSLRAEDTAVYYCTRDDDYDVKVFAYWGQGTMVTVSS VL: DIVMTQSPDSLAVSLGERATINCKSSRSLLNSRIRKNYLAWYQQKPGQPPKLLIYWASTRESGVPDRFSGSGSGTDFTLTISSLQAEDVAVYYCKQSYNLLTFGQGTKVEIK | fold over rodent (competitive ELISA) | fold | 1.35
h1749VH2 + h1749VL2 (antibody, human IgG1, V domains shown, also called humanized 1749 conservative VH and VL) VH: EVQLVESGGGLVQPGGSLRLSCAASGFTFSSYIMSWVRQAPGKRLEWVATISSGGSSTYYPDSVKGRFTISRDNAKNSLYLQMNSLRAEDTAVYYCTRDDDYDVKVFAYWGQGTMVTVSS VL: DIVMTQSPDSLAVSLGERATINCKSSRSLLNSRIRKNYLAWYQQKPGQPPKLLIYWASTRESGVPDRFTGSGSGTDFTLTISSLQAEDVAVYYCKQSYNLLTFGQGTKVEIK | fold over rodent (competitive ELISA) | fold | 1.46
